test system: NEK9; settings: concentration: 1 μM, replicates: in singlicate; n = 1;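 further: KINOMEscan kinase panel screen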
Examples of compounds with documented %Inh follow.
endpoint.label: %Inh (%)

> print(dat)
                                    compound  endpoint.label  measured.value
 1             Nc1ncnc2c1ncn2-c1cccc2ccccc12            %Inh               0
 2  Cc1ccc(Oc2ccc(Nc3ncnc4cc[nH]c34)cc2C)cn1            %Inh               5
 3  COc1ccc(-c2coc3ccc(-c4nnc(SCc5cccc(C#N)c5)o4)cc23)cc1            %Inh               0
 4  COc1ccc(Nc2nccc(N3CCC(NS(=O)(=O)c4ccc(NC(C)=O)cc4)C3)n2)cc1 (stereo not drawn)            %Inh               5
 5  Cl.NS(=O)(=O)c1cccc(Nc2cc(-c3ccc(F)cc3)n[nH]2)c1            %Inh               0
 6  Cc1nn2c(=O)cc(N3CCOCC3)nc2n1Cc1cccc(Cl)c1Cl            %Inh               0
 7  COc1cc(OC)cc(-c2cc3cnc(N)nc3nc2NC(=O)NC(C)(C)C)c1            %Inh               0
 8  CCC(=O)c1c(-c2ccccc2)c2cc(Cl)ccc2c(=O)n1Cc1ccc(C(=O)O)cc1            %Inh               0
 9                Nc1ncnc2c1ncn2-c1cccc(F)c1            %Inh               0
10  COc1cc2nccc(Nc3ccc(OCc4ccc(NC(C)=O)cc4)cc3)c2cc1OC.Cl            %Inh            94.8
11  CCC(=O)c1c(-c2ccccc2)c2cc(Cl)ccc2c(=O)n1Cc1cc(S(C)(=O)=O)n(CCC(C)(C)O)n1            %Inh               0
12  COc1ccc(CNC(=O)NC2CCN(c3ccnc(Nc4ccc(F)cc4)n3)C2)cc1 (stereo not drawn)            %Inh               0
13  COc1cc(Nc2nccc(N3CCC(NC(=O)C(C)c4ccc(Cl)cc4)C3)n2)cc(OC)c1OC (stereo not drawn)            %Inh              19
14  COc1cc2ncn(-c3cc(OCc4ccncc4Br)c(C(N)=O)s3)c2cc1OC            %Inh               0
15  O=C(Nc1n[nH]c2nc(-c3ccccc3)c(Cl)cc12)C1CC1            %Inh               2
16  Cc1ccc(-c2ccc3c(ccc4sc5c(c43)NC[C@@H](C)N=C5N(C)C)n2)cn1            %Inh               0
17    CN(C)c1cc(-c2ccc3c(N)n[nH]c3c2)nc(N)n1            %Inh               0
18  COc1cc2ncn(-c3cc(OCc4ccc(S(C)(=O)=O)cc4)c(C(N)=O)s3)c2cc1OC            %Inh               0
